Data provenance: patent US11207312B2

Tested on: Serratia marcescens expressing IMP-1 (CL5741)
Type: cell-based
Conditions: with imipenem 1 μg/ml; 95% inhibition of bacterial growth
Where a name gives a salt, the structure may show the parent alone.
Parameter: CL5741 S. marcescens MITC95 IMP (µM)
// units = µM; emit number, no label

* NC[C@H](N)CNS(=O)(=O)c1ccc(N2CCN(CCO)CC2)c(-c2nnn[nH]2)c1S(N)(=O)=O | 0.20

Notebook: NS(=O)(=O)c1c(S(=O)(=O)N[C@@H]2CCNC2)ccc(N2CCOC(CO)C2)c1-c1nnn[nH]1 (some centres unmarked) , CL5741 S. marcescens MITC95 IMP read as 3.13

Notebook: CC(=O)N[C@@H]1CCN(c2ccc(S(=O)(=O)N[C@@H]3CCNC3)c(S(N)(=O)=O)c2-c2nnn[nH]2)C1 , CL5741 S. marcescens MITC95 IMP read as 6.25

Notebook: NCCNS(=O)(=O)C1CCN(c2ccc(S(=O)(=O)N[C@@H](CN)CO)c(S(N)(=O)=O)c2-c2nn[nH]n2)CC1 , CL5741 S. marcescens MITC95 IMP read as 1.56

Notebook: NC[C@@H](O)CNS(=O)(=O)c1ccc(N2CCC[C@@H](NCCO)C2)c(-c2nn[nH]n2)c1S(N)(=O)=O [Example 130, trifluoroacetate] , CL5741 S. marcescens MITC95 IMP read as 3.13

Notebook: NCCNS(=O)(=O)c1ccc(N2CCN(CCCO)CC2)c(-c2nnn[nH]2)c1S(N)(=O)=O , CL5741 S. marcescens MITC95 IMP read as 0.10

Notebook: NS(=O)(=O)c1c(S(=O)(=O)N[C@@H]2CCNC2)ccc(N2CCN(CCCO)CC2)c1-c1nnn[nH]1 , CL5741 S. marcescens MITC95 IMP read as 0.20

Notebook: COC(=O)C1CCN(c2ccc(S(=O)(=O)N[C@@H]3CCNC3)c(S(N)(=O)=O)c2-c2nn[nH]n2)CCN1.Cl (some centres unmarked) , CL5741 S. marcescens MITC95 IMP read as 1.56

Notebook: NC[C@@H](O)CNS(=O)(=O)c1ccc(N[C@H]2C[C@@H](N)C2)c(-c2nnn[nH]2)c1S(N)(=O)=O , CL5741 S. marcescens MITC95 IMP read as 1.56

* * *

Efflux ratio overview
System: P. aeruginosa MB9798 (efflux+, IMP-1 plasmid)
Settings: fold difference between efflux+ (MB9798) and efflux− (MB9799) strains
The response must contain the number and no unit.

* NS(=O)(=O)c1c(S(=O)(=O)N[C@@H]2CCNC2)ccc(N2CCC(c3c[nH]cn3)CC2)c1-c1nn[nH]n1 | 1.00
* CN(CCO)CCN(C)c1ccc(S(=O)(=O)NC[C@H](O)CN)c(S(N)(=O)=O)c1-c1nn[nH]n1 | 4.00

Notebook: Cl.Cl.NCC1CCN(c2ccc(S(=O)(=O)N[C@@H]3CCNC3)c(S(N)(=O)=O)c2-c2nn[nH]n2)CC1 , Efflux ratio read as 1.50

Notebook: NC[C@H](N)CNS(=O)(=O)c1ccc(N2CCC(c3c[nH]cn3)CC2)c(-c2nn[nH]n2)c1S(N)(=O)=O , Efflux ratio read as 2.00

* * *

IC50 overview
Biological target: VIM-1 (Pseudomonas aeruginosa (strain ATCC 15692 / DSM 22644 / CIP 104116 / JCM 14847 / LMG 12228 / 1C / PRS 101 / PAO1))
Experiment: biochemical
Details: CCF2-FA fluorescence assay, 2 hours at 25° C.; read-out: VIM1 IC50
// units = nM; emit number, no label

Notebook: NC[C@@H](O)CNS(=O)(=O)c1ccc(N2CC[C@H](N)C2)c(-c2nn[nH]n2)c1S(N)(=O)=O , IC50 read as 7.7

Notebook: NC[C@@H]1CCCN(c2ccc(S(=O)(=O)N[C@@H]3CCNC3)c(S(N)(=O)=O)c2-c2nnn[nH]2)C1 , IC50 read as 0.66
